Please go through the items and note down their TGI.
Test system: UACC-257 melanoma
EXPERIMENT_NOTES: NCI tumour cell line growth inhibition, 48 h
Peptide text beside a SMILES is read from it. * marks the point of attachment. X26 = Clc1c(Cl)c(Cl)c(O*)c(Cl)c1Cl; Boc = CC(C)(C)OC(=O)*; OBn = c1ccc(CO*)cc1; Bn = c1ccc(C*)cc1

List reported TGI for each of these molecules:
1. CCc1nc(N)nc(N)c1-c1ccc([N+](=O)[O-])c(NCc2ccccc2)c1
2. CCC(=O)Nc1ccc(NS(=O)(=O)c2ccc(Cl)cc2)cc1
3. CC(C)CC(NC(=O)C(CCC(=O)OCc1ccccc1)NC(=O)OC(C)(C)C)C(=O)NC(COCc1ccccc1)C(=O)NC(Cc1ccccc1)C(=O)Oc1c(Cl)c(Cl)c(Cl)c(Cl)c1Cl (stereo not given) (Boc-E(OBn)LS(Bn)F-X26; configuration not given here)
4. C[C@]12CC[C@@H]3c4ccc(O)c([N+](=O)[O-])c4CC[C@H]3[C@@H]1CC[C@@H]2NS(=O)(=O)c1ccc(C(F)(F)F)cc1
5. Clc1cc(C(c2cc(Cl)sc2Cl)c2cc(Cl)sc2Cl)c(Cl)s1

Out:
30.9 µM
> 100 µM
66.3 µM
4.74 µM
> 100 µM

List reported TGI for each of these molecules:
1. COc1cccc(N2C(=O)CS(=O)(=O)C2c2cccc(Oc3ccccc3)c2)c1 (stereo not given)
2. NCCN(CCN(C(=O)Nc1ccccc1)c1ccccc1)C(=O)Nc1ccccc1

Out:
1: 44.1 µM; 2: 36.4 µM

List reported TGI for each of these molecules:
1. CCOc1snc(C(Cl)(Cl)Cl)c1Cl
2. CC1(C)OC[C@@H](C[C@H](O)COCc2ccccc2)O1
3. O=c1oc2ccccc2c(O)c1C=NC(=S)c1ccncc1
4. CC(C)=CCC12Cc3ccc(O)cc3C(C(C)CN1)C2C (stereo not given)

Out:
1. 33.9 µM
2. > 100 µM
3. > 100 µM
4. > 100 µM

List reported TGI for each of these molecules:
1. O=C(OC12CC3CC(CC(C3)C1)C2)c1ccc(NCc2cc(O)ccc2O)cc1
2. CSc1ccc(C2=Nn3c(nnc3-c3ccc(F)c(Cl)c3)SC2)cc1

Out:
2.98 µM
> 100 µM
